All figures here come from patent US20050163814A1.

# assay-summary: GE Brightness of acephate powder
# Format: physicochemical
# test-context: bulk powder, reflected light

[
  {
    "compound": "COP(=O)(NC(C)=O)SC (stereo not shown) [Ex. 1, acephate, reference compound]",
    "GE Brightness": 87.2
  },
  {
    "compound": "COP(=O)(NC(C)=O)SC (stereo not shown) [Ex. 2, acephate]",
    "GE Brightness": 88.4
  },
  {
    "compound": "COP(=O)(NC(C)=O)SC (stereo not shown) [Ex. 4, acephate]",
    "GE Brightness": 93.7
  },
  {
    "compound": "COP(=O)(NC(C)=O)SC (stereo not shown) [Ex. 3, acephate, reference compound]",
    "GE Brightness": 90.2
  }
]
